All values here come from patent US11713338B2.

testedSystem: integrin α4β7 (RPMI8866 human cells adhering to MAdCAM-1) (Homo sapiens, UniProt P13612+P26010)
Construct: RMP18866 cells, which express integrin α4β7; host or cells: RPMI8866
Sequence (P13612 34-1032): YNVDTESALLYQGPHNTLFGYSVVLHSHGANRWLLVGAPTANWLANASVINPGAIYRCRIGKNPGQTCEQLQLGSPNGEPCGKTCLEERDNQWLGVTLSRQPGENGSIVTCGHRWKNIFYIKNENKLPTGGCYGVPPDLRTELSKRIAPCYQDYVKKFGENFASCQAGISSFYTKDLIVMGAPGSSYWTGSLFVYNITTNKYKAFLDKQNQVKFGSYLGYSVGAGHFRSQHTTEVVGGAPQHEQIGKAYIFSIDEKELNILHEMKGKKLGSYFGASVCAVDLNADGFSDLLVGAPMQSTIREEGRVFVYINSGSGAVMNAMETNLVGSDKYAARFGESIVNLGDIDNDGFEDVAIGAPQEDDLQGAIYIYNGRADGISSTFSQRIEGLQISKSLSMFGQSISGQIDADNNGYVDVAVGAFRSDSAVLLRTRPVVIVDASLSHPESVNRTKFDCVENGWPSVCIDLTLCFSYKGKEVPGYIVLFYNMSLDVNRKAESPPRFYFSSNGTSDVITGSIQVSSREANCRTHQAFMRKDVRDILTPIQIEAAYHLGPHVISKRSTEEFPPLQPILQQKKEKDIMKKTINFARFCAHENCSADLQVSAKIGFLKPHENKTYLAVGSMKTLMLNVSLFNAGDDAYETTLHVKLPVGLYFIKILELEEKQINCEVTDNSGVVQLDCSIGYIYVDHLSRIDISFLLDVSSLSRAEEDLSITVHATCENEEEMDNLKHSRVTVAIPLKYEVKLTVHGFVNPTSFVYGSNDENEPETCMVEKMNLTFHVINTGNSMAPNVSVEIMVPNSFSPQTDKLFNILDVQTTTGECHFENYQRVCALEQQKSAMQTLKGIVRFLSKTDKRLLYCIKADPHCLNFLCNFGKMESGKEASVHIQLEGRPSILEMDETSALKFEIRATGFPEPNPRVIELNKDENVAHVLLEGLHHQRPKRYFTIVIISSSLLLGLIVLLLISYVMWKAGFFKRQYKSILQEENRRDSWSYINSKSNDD
Sequence (P26010 20-798): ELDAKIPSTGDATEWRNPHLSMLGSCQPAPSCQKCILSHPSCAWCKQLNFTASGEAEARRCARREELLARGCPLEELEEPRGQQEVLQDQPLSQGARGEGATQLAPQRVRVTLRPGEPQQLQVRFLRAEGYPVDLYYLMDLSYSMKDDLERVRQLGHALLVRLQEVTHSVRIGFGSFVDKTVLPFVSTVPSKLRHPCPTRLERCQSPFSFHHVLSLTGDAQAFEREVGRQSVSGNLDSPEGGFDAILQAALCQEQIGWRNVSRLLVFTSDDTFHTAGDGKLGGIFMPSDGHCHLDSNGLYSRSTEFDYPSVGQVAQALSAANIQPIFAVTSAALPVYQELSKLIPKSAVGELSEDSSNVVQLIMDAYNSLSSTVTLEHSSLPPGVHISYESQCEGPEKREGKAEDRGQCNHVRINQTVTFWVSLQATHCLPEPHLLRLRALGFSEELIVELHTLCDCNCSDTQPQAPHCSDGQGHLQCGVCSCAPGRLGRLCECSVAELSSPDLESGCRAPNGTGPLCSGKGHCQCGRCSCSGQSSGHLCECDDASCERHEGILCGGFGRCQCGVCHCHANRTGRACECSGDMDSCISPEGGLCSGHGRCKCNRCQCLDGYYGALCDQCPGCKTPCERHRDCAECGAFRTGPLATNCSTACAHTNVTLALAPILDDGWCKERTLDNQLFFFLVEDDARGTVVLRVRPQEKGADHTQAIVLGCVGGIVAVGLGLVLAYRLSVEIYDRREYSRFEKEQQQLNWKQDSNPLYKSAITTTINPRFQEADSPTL
experimentDescription: Integrin α4β7-MAdCAM cell adhesion assay (RPMI8866 cells)
Assay type: cell-based
conditionLabel: RPMI8866 cells adhering to MAdCAM; read-out: RPMI8866 Adhesion α4β7/MAdCAM IC50
# strict inequality: IC50 < 60 nM yields Satisfied, everything else yields Not satisfied

1) CC(C)C[C@@H]1NC(=O)[C@H]2CCCCN2C(=O)[C@H](Cc2ccc(CNC(=O)CCCCCC(=O)NCc3ccc(C[C@@H]4NC(=O)[C@@H]5CCCN5[C@H](C(=O)NC(C)(C)C)[C@H](C)NC(=O)[C@H]([C@@H](C)O)NC(=O)[C@H](CC(=O)O)NC(=O)[C@H](CC(C)C)NC(=O)[C@H]5CCCCN5C4=O)cc3)cc2)NC(=O)[C@@H]2CCCN2[C@H](C(=O)NC(C)(C)C)[C@H](C)NC(=O)[C@H]([C@@H](C)O)NC(=O)[C@H](CC(=O)O)NC1=O [Compound 524] = Not satisfied
2) CC(C)C[C@@H]1NC(=O)c2ccc(-c3ccc(N4CCN(C(=O)CCSCCC(=O)N5CCN(c6ccc(-c7ccc8cc7CNC(=O)[C@@H]7CCCN7[C@H](C(=O)NC(C)(C)C)[C@H](C)NC(=O)[C@H]([C@@H](C)O)NC(=O)[C@H](CC(=O)O)NC(=O)[C@H](CC(C)C)NC8=O)cc6)CC5)CC4)cc3)c(c2)CNC(=O)[C@@H]2CCCN2[C@H](C(=O)NC(C)(C)C)[C@H](C)NC(=O)[C@H]([C@@H](C)O)NC(=O)[C@H](CC(=O)O)NC1=O [Compound 473] = Not satisfied
3) CC(C)C[C@@H]1NC(=O)c2ccc(-c3ccc(N4CCN(C(=O)c5cccc(C(=O)N6CCN(c7ccc(-c8ccc9cc8CNC(=O)[C@@H]8CCCN8[C@H](C(=O)NC(C)(C)C)[C@H](C)NC(=O)[C@H]([C@@H](C)O)NC(=O)[C@H](CC(=O)O)NC(=O)[C@H](CC(C)C)NC9=O)cc7)CC6)n5)CC4)cc3)c(c2)CNC(=O)[C@@H]2CCCN2[C@H](C(=O)NC(C)(C)C)[C@H](C)NC(=O)[C@H]([C@@H](C)O)NC(=O)[C@H](CC(=O)O)NC1=O [Compound 472] = Not satisfied
4) CC(C)C[C@@H]1NC(=O)c2ccc(-c3ccc(N4CCN(C(=O)CN(C)CC(=O)N5CCN(c6ccc(-c7ccc8cc7CNC(=O)[C@@H]7CCCN7[C@H](C(=O)NC(C)(C)C)[C@H](C)NC(=O)[C@H]([C@@H](C)O)NC(=O)[C@H](CC(=O)O)NC(=O)[C@H](CC(C)C)NC8=O)cc6)CC5)CC4)cc3)c(c2)CNC(=O)[C@@H]2CCCN2[C@H](C(=O)NC(C)(C)C)[C@H](C)NC(=O)[C@H]([C@@H](C)O)NC(=O)[C@H](CC(=O)O)NC1=O [Compound 501] = Satisfied
5) CC(C)C[C@@H]1NC(=O)C[C@H](CCCCN)N(C)C(=O)[C@H](CCCCNC(=O)CCCCCCCCC(=O)NCCCC[C@@H]2NC(=O)[C@@H]3CCCN3[C@H](C(=O)NC(C)(C)C)[C@H](C)NC(=O)[C@H]([C@@H](C)O)NC(=O)[C@H](CC(=O)O)NC(=O)[C@H](CC(C)C)NC(=O)C[C@H](CCCCN)N(C)C2=O)NC(=O)[C@@H]2CCCN2[C@H](C(=O)NC(C)(C)C)[C@H](C)NC(=O)[C@H]([C@@H](C)O)NC(=O)[C@H](CC(=O)O)NC1=O [Compound 530] = Satisfied
6) CC(C)C[C@@H]1NC(=O)C[C@H](CCCCN)N(C)C(=O)[C@H](CCCCNC(=O)CCCCCCCC(=O)NCCCC[C@@H]2NC(=O)[C@@H]3CCCN3[C@H](C(=O)NC(C)(C)C)[C@H](C)NC(=O)[C@H]([C@@H](C)O)NC(=O)[C@H](CC(=O)O)NC(=O)[C@H](CC(C)C)NC(=O)C[C@H](CCCCN)N(C)C2=O)NC(=O)[C@@H]2CCCN2[C@H](C(=O)NC(C)(C)C)[C@H](C)NC(=O)[C@H]([C@@H](C)O)NC(=O)[C@H](CC(=O)O)NC1=O [Compound 533] = Satisfied
7) CC(C)C[C@@H]1NC(=O)[C@H]2CCCCN2C(=O)[C@H](Cc2ccc(CNC(=O)CCCCC(=O)NCc3ccc(C[C@@H]4NC(=O)[C@@H]5CCCN5[C@H](C(=O)NC(C)(C)C)[C@H](C)NC(=O)[C@H]([C@@H](C)O)NC(=O)[C@H](CC(=O)O)NC(=O)[C@H](CC(C)C)NC(=O)[C@H]5CCCCN5C4=O)cc3)cc2)NC(=O)[C@@H]2CCCN2[C@H](C(=O)NC(C)(C)C)[C@H](C)NC(=O)[C@H]([C@@H](C)O)NC(=O)[C@H](CC(=O)O)NC1=O [Compound 523] = Not satisfied
8) CC(C)C[C@@H]1NC(=O)c2ccc(-c3ccc(N4CCN(Cc5cccc(CN6CCN(c7ccc(-c8ccc9cc8CNC(=O)[C@@H]8CCCN8[C@H](C(=O)NC(C)(C)C)[C@H](C)NC(=O)[C@H]([C@@H](C)O)NC(=O)[C@H](CC(=O)O)NC(=O)[C@H](CC(C)C)NC9=O)cc7)CC6)c5)CC4)cc3)c(c2)CNC(=O)[C@@H]2CCCN2[C@H](C(=O)NC(C)(C)C)[C@H](C)NC(=O)[C@H]([C@@H](C)O)NC(=O)[C@H](CC(=O)O)NC1=O [Compound 499] = Satisfied
9) CC(C)C[C@@H]1NC(=O)c2ccc(-c3ccc(N4CCN(C(=O)Cc5ccc(CC(=O)N6CCN(c7ccc(-c8ccc9cc8CNC(=O)[C@@H]8CCCN8[C@H](C(=O)NC(C)(C)C)[C@H](C)NC(=O)[C@H]([C@@H](C)O)NC(=O)[C@H](CC(=O)O)NC(=O)[C@H](CC(C)C)NC9=O)cc7)CC6)cc5)CC4)cc3)c(c2)CNC(=O)[C@@H]2CCCN2[C@H](C(=O)NC(C)(C)C)[C@H](C)NC(=O)[C@H]([C@@H](C)O)NC(=O)[C@H](CC(=O)O)NC1=O [Compound 516] = Not satisfied
